assay.notes: Inhibition of CYP450 (unknown origin)
Assay type: ADME, Homo sapiens
readout: IC50

For `C[C@H]1Cn2c(nnc2-c2cnccn2)C(=O)N1Cc1cccc(C(F)(F)F)c1Cl` the molecule record lists IC50 as > 10 µM

----------
assay.notes: Oral bioavailability in rat at 5 mg/kg
Type: ADME, organism-based
details: in vivo
readout: bioavailability (%)
Numbers only, in %.

[
  {
    "chemical.string": "C[C@H]1Cn2c(nnc2-c2cccnc2)C(=O)N1Cc1cccc(C(F)(F)F)c1Cl",
    "bioavailability (%)": 82
  },
  {
    "chemical.string": "C[C@H]1Cn2c(nnc2-c2cnccn2)C(=O)N1Cc1cccc(C(F)(F)F)c1Cl",
    "bioavailability (%)": 125
  },
  {
    "chemical.string": "C[C@H]1Cn2c(nnc2-c2cc[nH]n2)C(=O)N1Cc1cccc(C(F)(F)F)c1Cl",
    "bioavailability (%)": 81
  }
]

For `C[C@H]1Cn2c(nnc2-c2ncccn2)C(=O)N1Cc1cccc(C(F)(F)F)c1Cl` the compound record lists bioavailability as 80
